Origin of measurements: patent US20240116985A1

target_of_assay: full-length beta-Catenin (Uniprot ID P35222) (Homo sapiens (Human)) (UniProt P35222)
Sequence (P35222 whole entry): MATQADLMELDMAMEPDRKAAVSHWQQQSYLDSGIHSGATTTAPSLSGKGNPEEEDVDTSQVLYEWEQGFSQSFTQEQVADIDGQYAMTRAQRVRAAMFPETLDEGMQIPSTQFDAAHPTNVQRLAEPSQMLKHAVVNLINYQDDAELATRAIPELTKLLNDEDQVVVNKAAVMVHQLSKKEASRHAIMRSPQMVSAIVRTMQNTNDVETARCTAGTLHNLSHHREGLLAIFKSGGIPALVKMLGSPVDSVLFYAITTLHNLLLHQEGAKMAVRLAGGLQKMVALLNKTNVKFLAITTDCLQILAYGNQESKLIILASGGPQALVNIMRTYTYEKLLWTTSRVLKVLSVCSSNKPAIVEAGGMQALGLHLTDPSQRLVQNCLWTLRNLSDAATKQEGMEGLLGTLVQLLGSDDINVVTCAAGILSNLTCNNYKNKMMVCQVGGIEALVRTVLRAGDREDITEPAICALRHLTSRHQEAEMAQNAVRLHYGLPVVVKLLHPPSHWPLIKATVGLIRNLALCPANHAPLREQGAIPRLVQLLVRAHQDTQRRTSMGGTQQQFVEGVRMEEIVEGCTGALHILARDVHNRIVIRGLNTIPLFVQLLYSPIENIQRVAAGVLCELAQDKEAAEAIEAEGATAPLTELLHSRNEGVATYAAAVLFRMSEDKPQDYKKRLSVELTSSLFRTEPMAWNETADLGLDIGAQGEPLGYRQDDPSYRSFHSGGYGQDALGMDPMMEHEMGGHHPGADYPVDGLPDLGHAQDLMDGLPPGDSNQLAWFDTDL
run_description: fluorescence polarization competition; 5FAM-TCF4 10-53 probe on full-length beta-catenin
Starred links: 1 amine or outer side, 2 acyl side, 3 side chain; linkers in the order of their positions; H or OH if unused. Positions of bridges follow the written chain, without caps; N, C: chain ends. Non-standard residues stand in square brackets, D forms with d. Primed or numbered codes have the meaning given here. PyrS2″ = (S)-3-amino-1-((pent-4-en-1-yloxy)carbonyl)pyrrolidine-3-carboxylic acid (stapling residue), C=CCCCOC(=O)N1CC[C@@](N[*:1])(C(=O)[*:2])C1; B5 = 2-amino-2-(pent-4-en-1-yl)hept-6-enoic acid, C=CCCCC(CCCC=C)(N[*:1])C(=O)[*:2]; Bta = N[C@@H](Cc1csc2ccccc12)C(=O)O; αAllylPro = C=CC[C@@]1(C(=O)O)CCCN1; tBuAla = CC(C)(C)C[C@H](N)C(=O)O; 3Thi = N[C@@H](Cc1ccsc1)C(=O)O
measured_endpoint: IC50 (nM)

>>> endpoint_value("Ac-[αAllylPro]D[tBuAla][B5]DDAAFN[PyrS2″][3Thi][Bta][dN]-NH2 (staple 1-4, 4-11) [I-818]")
6
>>> endpoint_value("Ac-[αAllylPro]D[tBuAla][B5]DDAAFN[PyrS2″][3Thi][Bta][dT]-NH2 (staple 1-4, 4-11) [I-817]")
10
